Test: qHTS Assay for Lipid Storage Modulators in Drosophila S3 Cells
Conditions: BODIPY lipid droplet fluorescence, 18-24 h, cells fed with added oleic acid; series mostly up to 46.1 µM
Excerpt: NIH Molecular Libraries Probe Production Centers Network [MLPCN] NIH Chemical Genomics Center [NCGC] […] Triacsin C (Sigma-Aldrich T-4540), an inhibitor of long-chain fatty acyl CoA synthetase that blocks synthesis of triglycerides, was used as a positive control for lipid under-storage. […] Fluorescence was detected by excitation of the fluorophores with a 488-nm laser on an Acumen Explorer (TTP Lab Tech). […] Cells were detected using channel 3 (575-640 nm) with 5-um width and 100-um depth filters. […]
In all, about 320,000 compounds went through this assay and about 2,100 (0.66%) were called active. Not shown: some 53% with an inconclusive outcome. The call rests on the fitted dose curve; in most records, active means well fitted inhibition curve with a large enough effect in the signal ratio, with a control signal flat (not every such curve was filed as active); inconclusive means small, poorly fitted or top-dose-only effect, or effect the other way, or a change in a side signal; inactive means flat fitted curve, though single readings scatter; the % refers to the signal ratio. This excerpt belongs to a sample that is enriched for actives.
Classes used: yes (1) for active, no (0) for inactive

compound	qualitative label
CC1Nc2ccc(C(=O)NC3CCCCC3)cc2NC1=O (configuration not stated)	yes (1)
O=C(OCC(=O)N1CCCC1)c1c(Cl)ccc(Cl)c1Cl	yes (1)
Cc1cccc(C(=O)NC2CCCCCCC2)c1	no (0)
CS(=O)(=O)Nc1ccc(C(=O)NC2CCCC2)cc1	yes (1)
O=C(OCC(=O)N1CCCC1)c1cc(Cl)ccc1Cl	no (0)
CS(=O)(=O)NCc1ccc(C(=O)NC2CCCCC2)cc1	no (0)
O=C(NC1CCCCC1)c1ccc2c(c1)OCO2	no (0)
CCC1(c2ccc(F)cc2)NC(=O)N(CC(=O)N2CCOCC2)C1=O (configuration not stated)	no (0)
COc1ccc(C)cc1NC(=O)CCCN1C(=S)NC(C)(C)CC1C (configuration not stated)	no (0)
COc1ccc(NC(=O)CN2C(=O)NC3(CCCC3)C2=O)c(OC)c1	no (0)
CS(=O)(=O)c1ccc(C(=O)NC2CCCCC2)cc1	no (0)
O=C(OCC(=O)N1CCOCC1)c1c(Cl)ccc(Cl)c1Cl	no (0)

---

assay: qHTS Assay for Lipid Storage Modulators in Drosophila S3 Cells; conditions: BODIPY lipid droplet fluorescence, 18-24 h, cells fed with added oleic acid; measured here: cell count max response;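 on cell number change: cells counted by Cell Tracker Red CMTPX staining in the red channel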
About 2,100 (0.66%) of roughly 320,000 compounds were called active. Another 53% or so got no clear call; they are omitted. The entries come from a sample that favours actives as a whole.

compound	units text	cell number change
COC(=O)C1=C(C)N(C)C(=O)NC1c1ccccc1 (configuration not stated)	%	-9.2
O=C(NCC1CCN(C(=O)c2ccc([N+](=O)[O-])cc2)CC1)C(=O)Nc1ccccc1	%	-0.701
CCN(CC)CC(=O)N1c2ccccc2Oc2c(c(=O)n(C)c(=O)n2C)C1c1cccc([N+](=O)[O-])c1 (configuration not stated)	%	16
S=C(NCCc1ccccc1)N1CCn2cccc2C1c1cccnc1 (configuration not stated)	%	-24.1
CC(=O)N1c2c(cc(Br)cc2S(=O)(=O)NCc2ccc3c(c2)OCO3)CC1C (configuration not stated)	%	-27.2
COC(=O)NC1CCC(NC(=O)OC)CC1 (configuration not stated)	%	-8.14
COc1ccc(/C=C/C(=O)N2CCN(c3ccccn3)CC2)c(OC)c1OC	%	5.19
CC(=O)c1ccc(OC(C)C)c(CN2CCCCC2)c1	%	-4.17
CN(C(=O)c1ccc(Cl)c(S(=O)(=O)N2CCOCC2)c1)c1ccccc1C(=O)O	%	-5.89
COC(=O)[C@@]1(Cc2ccc(OC)cc2)[C@H]2c3cc(C(=O)N4CCCC4)n(CCSCCO)c3C[C@H]2CN1C(=O)c1ccccc1	%	0.624
CCCCCCC(=O)NN1CCN(C)CC1	%	-18.7
COc1ccc(OC)c(S(=O)(=O)N2CCN(c3ccccn3)CC2)c1	%	-24
COc1ccc(C(=O)O)cc1S(=O)(=O)N1CCN(c2ccccn2)CC1	%	2.78
O=C(Nc1ccccc1C(=O)O)c1ccc(Cl)c(S(=O)(=O)N2CCOCC2)c1	%	-21
COc1ccc(S(=O)(=O)N2CCN(c3ccccn3)CC2)c(OC)c1	%	-13
COc1cccc(/C=C/C(=O)N2CCN(c3ccccn3)CC2)c1	%	-5.2
S=c1[nH]nc(-c2cc(-c3ccccc3)n[nH]2)n1/N=C/C=C/c1ccccc1	%	5.92
COc1ccc(Br)cc1CN(C)C(=O)Cc1ccc(OC)c(S(=O)(=O)N2CCOCC2)c1	%	30.1
CCCOc1ccc(C(C)=O)cc1CC(C(=O)OCC)C(=O)OCC	%	1.14
COc1ccc(CCNCc2c(OC)ccc3ccccc23)cc1OC	%	20.1
COc1cc(/C=C/C(=O)N2CCN(c3ccccn3)CC2)cc(OC)c1OC	%	-26.3
COC(=O)C1=C(C)N(C)C(=O)NC1c1ccc(C)cc1 (configuration not stated)	%	-10.6

These measurements were taken from PubChem BioAssay AID2685.
